Source listed as the RNAGym collection of RNA variant scans (doi:10.7554/elife.80360).

# maps each entry to its self-cleavage
B1: HDV Ribozyme (parent)
chain: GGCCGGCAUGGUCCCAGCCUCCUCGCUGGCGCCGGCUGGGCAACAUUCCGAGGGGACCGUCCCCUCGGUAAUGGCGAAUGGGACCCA

Variants of: B1
Test: self-cleavage, relative activity (ratio to wild type); higher = more cleavage; co-transcriptional
# answer = number (no unit)

GGCCGGCAUGGUCCCAGCCUCCUCGCUGGCGCCGGCUGGGCAACAUUCCGAGGGGACCGUCGCCUCGAUAAUGGCGAAUGGGACCCA [C62G G68A]    0.199
GGCCGGCAUGGUCCCAGCCUCCUCGCUGGCGCCGGCUGGGCAACAUUCCGAGGGGACCGUCCCCUUGGUAAUGGCGAAUGGGACCCA [C66U]    1.01

Quote self-cleavage reported for GGCCGGCAUGGUCCCAGCCUGCUCGCUGGCGCCGGCUGGGCAACAUUCCGAGGGGACCGUCCCCUCAGUAAUGGCGAAUGGGACCCA [C21G G67A] please.
0

Give self-cleavage for GGCCGGCAUGGUCCCAGCCUCCUCGCUGGCGCCGGCUGGGCAAUAUUCCGAGGGGACCGUCCCCUCUGUAAUGGCGAAUGGGACCCA [C44U G67U]
0.499

Give the value of self-cleavage reported for the following: GGCCGGCAUGGUCCCAGCCUCCUCGCUGGCGCCGGCUGGGCAACAUACCGAGCGGACCGUCCCCUCGGUAAUGGCGAAUGGGACCCA [U47A G53C]
1.19

Tell us which self-cleavage value is on record for GGCCGGCAUGGUCCCAGCCUCCUCGCUGGCGCCGGCUGGGCAACAUUCCGAGGGGACCGUCCCCUCGGUAAUGGCGAAUGGCACCCA [G82C]
0.259

For the variant GGCAGGCAUGGUCCCAGCCUCCUCGCUGGCGCCGGCUGGGCAACAUGCCGAGGGGACCGUCCCCUCGGUAAUGGCGAAUGGGACCCA [C4A U47G] , give its measured self-cleavage value.
0.201

For the variant GGCCGGCAUGGUGCCAGCCUCCUCGCUGGCGCCGGCUGGGCAACAUUCCGAGGGGACCGUCCCCUCGGUAAUGGCGAAUUGGACCCA [C13G G80U] , give its measured self-cleavage value.
0.0475

Report self-cleavage for GGCCGGCAUGGUCCCAACCUCCUCGCUGGCGCCGGCUGGGCAACAUUCCGAGGGGACCGUCCCCUCGGUAAGGGCGAAUGGGACCCA [G17A U72G]
0.378

Respond only with self-cleavage recorded for GGCCGGCAUGGUCCCAGCCUCCUCGCUGUCGCCGGCUGGGCAACAUUCCGCGGGGACCGUCCCCUCGGUAAUGGCGAAUGGGACCCA [G29U A51C]
0.0898

Determine from records and report self-cleavage for GGGCGGCAUGGUCCCAGCCUCCUCGCUGGCGCCGGCUGGGCAACAUUCCGAGGGGACCCUCCCCUCGGUAAUGGCGAAUGGGACCCA [C3G G59C]
0.903

Answer with the recorded self-cleavage for the variant listed here: GGCCGGCAUGGUCCCAGCCUCGUCGCUGGCGCCGGCUGGGCAACAUUCCGAGGGGACCGUCCCCUCAGUAAUGGCGAAUGGGACCCA [C22G G67A]
0.0898

Retrieve self-cleavage measured for GGCCGGCACGGUCCCAGCCUCCUCGCUGGCGCCGGCUGGGCAACAUUCCGAGGGGACCGUCCCCUCGGUAAUGGCCAAUGGGACCCA [U9C G76C] and print it.
1.11

Fill in reported self-cleavage for this entry: GGCCGGCAUGGUCCCAGCCUCCUCGCAGGCGCCGGCUGGGCAACAUUCCGAGGGGACCGUCGCCUCGGUAAUGGCGAAUGGGACCCA [U27A C62G]
0.929

Please indicate self-cleavage recorded for GGCCGGCAUGGUCCCAGCCUCCUCGCUGGCGCCGGUUGGGCAACAUUCCGAGGCGACCGUCCCCUCGGUAAUGGCGAAUGGGACCCA [C36U G54C]
0.872

Name the recorded self-cleavage of the item GGCCGGCACGGUCCCAGCCUCCUCGCUGGCGCCGGCUGGGCAACAUUACGAGGGGACCGUCCCCUCGGUAAUGGCGAAUGGGACCCA [U9C C48A] in your answer.
0.911

Item GUCCGUCAUGGUCCCAGCCUCCUCGCUGGCGCCGGCUGGGCAACAUUCCGAGGGGACCGUCCCCUCGGUAAUGGCGAAUGGGACCCA [G2U G6U] : provide self-cleavage
0.0621

Assign self-cleavage to the following record: GGCCGGCAUGGUCCCAGCCUCCUCGCUGACGCCGGCUGGUCAACAUUCCGAGGGGACCGUCCCCUCGGUAAUGGCGAAUGGGACCCA [G29A G40U]
0.0831

Give the value of self-cleavage reported for the following: GGCCGGCAUGGUCCCAGCCUCCUCGCUGGCGCCGGCUGGGUAACAUUCCGAGGGAACCGUCCCCUCGGUAAUGGCGAAUGGGACCCA [C41U G55A]
1.06

Return value of self-cleavage for input GGCCGGCAUGGUCCCAGCCUCCUCGCUGGCGCCGGCUGGGCAACGUUCCGGGGGGACCGUCCCCUCGGUAAUGGCGAAUGGGACCCA [A45G A51G] , no commentary.
0.612

Give self-cleavage for GGCCGGCAUGGUCCCAGCCUCCUCGCUGGCGCCGGCUGGCCAACAUUCCGAGGGGACCGUCCCCUCGGUAAUGGCGAAUGGGUCCCA [G40C A83U]
0

Please supply the value of reported self-cleavage for the item GGCCGGCAUGGUCCCAGCCUCCUCGCUGGCGCCGGCUGGGCAACAUUCCGAGGGGACCGUCCCGUCGGUAAUGGGGAAUGGGACCCA [C64G C75G]
0
